Where do these numbers come from? They come from PubChem BioAssay (NCI).

Tested on: COLO 205 colon
assay-info: NCI tumour cell line growth inhibition, 48 h; in the data active = GI50 below about 0.43 µM; inactive = the rest
Just give me one of these, please: class 1 for active, class 0 for inactive

Req: What classification did `COc1ncc(-c2ccc3nccc(C#CCCCCC(=O)O)c3c2)cc1NS(=O)(=O)c1ccc(F)cc1F` end up with in this test?
Resp: class 1

Req: What classification did `C=C1C(=O)O[C@H]2[C@H]1CC/C(CNC(=O)c1cccc3ccccc13)=C\CC[C@@]1(C)O[C@@H]21` end up with in this test?
Resp: class 0

Req: What classification did `Brc1ccc(SCN(CSc2ccc(Br)cc2)Cc2ccccc2)cc1` end up with in this test?
Resp: class 0

Req: What classification did Cc1c([C@H](C(Cl)Cl)[C@H](O)[C@H]2C[C@H](C)C(=O)O2)ccc2c1C(=O)[C@H]1[C@H]2C[C@@H](Br)[C@@]23O[C@@H](CO[C@H]2O)CC13C (some centres undefined) end up with in this test?
Resp: class 1
